Attribute: growth
system: MDA-MB-435 melanoma; experiment: NCI-60 one-dose screen, 48 h (100 = growth as untreated, 0 = no growth, -100 = all killed); conditions: 10 µM unless noted
Compounds without any hit were thinned out: in the full panel of roughly 83,000, 20% have a hit.
Numeric only. Scale: %

Some solved entries appear below for comparison.
CCC1=CCC[C@@]2(C)CCC[C@@]3(C)CCCC(C)(C)[C@]1([O-])[O+]32 | 103
O=S(=O)(NCCNc1nccc(-c2c(-c3cccc(O)c3)nc3sccn23)n1)c1ccc(F)cc1 | 29.4
CN(C)c1oc(C2OC2c2ccccc2)nc1C#N (stereo unspecified) | 101
CCOC(=O)C1CCNC(=O)C1=O (stereo unspecified) | 113
CC(=O)c1cc2c(N)c(C(=O)Nc3cccc4c3OCCO4)sc2nc1C | 24.1

## Input // returns reported growth for input "C=C(C)[C@@H]1C[C@@H]2Cc3cc(F)ccc3N1O2"
## Output 104

## Input // returns reported growth for input "O=C(O)COc1ccc(-c2cssc2=S)cc1"
## Output 102

---

test system: HOP-62 NSCLC; assay: NCI-60 one-dose screen, 48 h (100 = growth as untreated, 0 = no growth, -100 = all killed); conditions: 10 µM unless noted
Compounds without any hit were thinned out: in the full panel of roughly 83,000, 20% have a hit.
Use yes when the recorded growth is no lower than 80%; use no when it is lower.

Examples with answers:
C=C[C@@H]1C[C@H](O)Cc2cc(F)ccc2N1 | yes
O=[N+]([O-])c1ccc(Sc2ncccn2)c([N+](=O)[O-])c1 | yes

## Input Is reported growth greater than or equal to 80% here: "COc1ccc(-c2c(N)n[nH]c2-c2cc(OC)c(OC)c(OC)c2)cc1"
## Output no

## Input Is reported growth greater than or equal to 80% here: "COc1cc(-c2ncn(/C=C\C(=O)OC(C)C)n2)cc(C(F)(F)F)c1"
## Output no

## Input Is reported growth greater than or equal to 80% here: "O=C1C(Cl)=C(Nc2ccccn2)C(=O)c2ccccc21"
## Output no

---

tested on: A549/ATCC NSCLC; test: NCI-60 one-dose screen, 48 h; conditions: 10 µM unless noted
This is part of a sample that, as a whole, favours compounds with a hit. Of some 83,000 tested, about 20% had one in any assay. The source made the active and inactive calls. Rule for the calls: active = growth percent below 10; inactive = the rest.
Mark one answer only. Choices: active, inactive

## Input Please state the recorded outcome for this molecule: "COc1ccc(/C=N\NC(=O)CN2CCN(c3cc4c(cc3F)c(=O)c(C(=O)N/N=C/c3ccc(OC)c(OC)c3)cn4C3CC3)CC2)cc1OC"
## Output inactive

## Input Please state the recorded outcome for this molecule: "Nc1cccc(Cl)c1N"
## Output inactive

## Input Please state the recorded outcome for this molecule: CC(C)(C)NCCC(O)c1cc2c(Cl)cc(Cl)cc2c2cc(C(F)(F)F)ccc12 (stereo not given)
## Output active

---

tested on: SR leukemia; assay: NCI-60 one-dose screen, 48 h (100 = growth as untreated, 0 = no growth, -100 = all killed); settings: 10 µM unless noted
This is part of a sample that, as a whole, favours compounds with a hit. Of some 83,000 tested, about 20% had one in any assay.
assay-metric: growth (%)
Numeric only. Scale: %

COc1ccc(-c2c(N)n[nH]c2-c2cc(OC)c3c(c2)OCCO3)cc1 | -6.97
OC(c1cc2cc(Br)ccc2c2cc(Br)ccc12)C1CCCCN1 (stereo not given) | -74.1
Cc1ccc2nc(-c3cc4c([nH]c5ccccc54)c(-c4ccc(F)c(F)c4)n3)[nH]c2c1 | -18.8

## Input Any idea what growth came out for "Cc1ccc(-c2nc(C(Cl)Cl)n3nc(-c4ccccc4)cc3n2)cc1" on SR leukemia?
## Output 87.6

## Input Any idea what growth came out for "FC(F)(F)c1cccc(-c2cn3c(ccc4ccccc43)n2)c1" on SR leukemia?
## Output 95.1

## Input Any idea what growth came out for "CN(C)CCCN(c1nc(C(Cl)(Cl)Cl)ns1)c1nc(C(Cl)(Cl)Cl)ns1" on SR leukemia?
## Output 17.1

## Input Any idea what growth came out for "COC(=O)c1cc(=O)nc(N/N=C/c2ccco2)s1" on SR leukemia?
## Output 87

## Input Any idea what growth came out for "CCN(CC)c1ccc(/C=C2\Oc3ccc(O)c(I)c3C2=O)cc1" on SR leukemia?
## Output 2.38

## Input Any idea what growth came out for "CCOC(=O)c1cc(C(=O)c2cc(OC)c(OC)c(OC)c2)n2c1ccc1ccccc12" on SR leukemia?
## Output 10.8

## Input Any idea what growth came out for C=C1CCC2C(C)(CO)C(O)CCC2(C)C1C/C=C1/C(=O)OCC1Oc1ccccc1C (stereo not given) on SR leukemia?
## Output 50.7

---

system: HOP-62 NSCLC; assay: NCI-60 one-dose screen, 48 h (100 = growth as untreated, 0 = no growth, -100 = all killed); conditions: 10 µM unless noted
This is part of a sample that, as a whole, favours compounds with a hit. Of some 83,000 tested, about 20% had one in any assay.
assay-metric: growth (%)
Numeric only. Scale: %

Some solved entries appear below for comparison.
CCN(CC)CCOc1ccc(Cl)c(C)c1 | 104
COc1cccc(CC(C)=C(c2ccc(OCCN3CCCCC3)cc2)c2ccc(OCCN3CCCCC3)cc2)c1 | 31.1

## Input // returns reported growth for input "N#Cc1c(Nc2ccccc2)nc2n(c1=O)-c1ccccc1Sc1ccccc1-2"
## Output 98.8

## Input // returns reported growth for input "CC(C)(C)n1cc(-c2ccnc(NCCNS(=O)(=O)c3ccc(Cl)cc3)c2)c(-c2cccc(O)c2)n1"
## Output 84.9

## Input // returns reported growth for input "Cc1ccc(-c2nc(C(Cl)Cl)n3nc(-c4ccccc4)cc3n2)cc1"
## Output 3.61

## Input // returns reported growth for input "O=[N+]([O-])c1cnc(Sc2ccncn2)s1"
## Output 92

## Input // returns reported growth for input "COP(=O)(OC)/C(=N\NS(=O)(=O)c1ccc(C)cc1)c1ccccc1"
## Output 95.5

## Input // returns reported growth for input "N=c1ccc2nc3ccc(N)cc3sc-2c1"
## Output 15

## Input // returns reported growth for input CCC(=O)OC1=CN2C(=NC(c3ccc(N)cc3)=CC2c2cc(OC)c(OC)c(OC)c2)S1 (stereo unspecified)
## Output 48.1

## Input // returns reported growth for input "Nc1nnc(-c2ccc3ccccc3c2O)o1"
## Output 89.8

## Input // returns reported growth for input "COC(=O)c1cc2cc(-c3ccc(OC)cc3)cnc2[nH]1"
## Output 50.3

---

Attribute: growth
system: HCC-2998 colon; assay: NCI-60 one-dose screen, 48 h (100 = growth as untreated, 0 = no growth, -100 = all killed); details: 10 µM unless noted
The panel holds about 83,000 compounds, 20% with a hit somewhere; the sample as a whole holds those more often.
Numeric only. Scale: %

Some solved entries appear below for comparison.
c1ccc(-c2cn(-c3ccccc3)c(-c3ccccc3)n2)cc1 | 92.3
COc1ccc(-c2cnnn2-c2nonc2-n2cccc2)cc1OC | 62
CC(C)CSc1nc(NN)c(C#N)c(-c2ccc(F)cc2)n1 | 54.4

## Input // returns reported growth for input "COc1cc(/C=N\NC(=O)CN2CCN(c3cc4c(cc3F)c(=O)c(C(=O)N/N=C/c3cc(OC)c(OC)c(OC)c3)cn4C3CC3)CC2)cc(OC)c1OC"
## Output -95.2

## Input // returns reported growth for input "COc1ccc(S(=O)(=O)n2cc(C(=O)C(=O)Nc3ccncc3)c3ccccc32)cc1F"
## Output 73.5

## Input // returns reported growth for input CCOC(=O)c1ccc(NC(=O)N2CC(C)OC(C)C2)cc1 (stereo unspecified)
## Output 105

---

system: MDA-MB-231 breast; assay: NCI-60 one-dose screen, 48 h (100 = growth as untreated, 0 = no growth, -100 = all killed); conditions: 10 µM unless noted
About 83,000 compounds went through this panel and 20% of them were active in at least one assay; those are over-represented in the sample as a whole.
Attribute: growth
Numeric only. Scale: %

Some solved entries appear below for comparison.
CCCCN(CCCC)C(=N)c1ccnc2ccccc12 | 119
CC(=O)Oc1csc(N(C(C)=O)c2cc(C(=O)O)cc(C(=O)O)c2)n1 | 89.2
COc1ccc(S(=O)(=O)NCCCNc2nccc(-n3ccc4cccnc43)n2)cc1 | 91.1
O=C(Oc1ccccc1[N+](=O)[O-])C1CCCN1C(=O)OCc1ccccc1 (stereo unspecified) | 103
Cc1ccc(-c2nc(C#N)c(S(=O)(=O)n3nc(-c4ccccc4)cc3N)o2)cc1 | 89
CC1CN(c2oc(-c3ccccc3)nc2C#N)CC(C)O1 (stereo unspecified) | 101
COC(=O)C(Sc1ccc(Cl)cc1)C1SC(=S)N(Cc2ccccc2)C1=O (stereo unspecified) | 98.9
CCCCCCCCCCCCNC(=O)[C@H]1CSC(c2ccsc2)N1 (stereo partly specified) | -80.5
CCOC(=O)c1c(NS(=O)(=O)c2ccc(C)cc2)sc2c1CCC1(C2)OCCO1 | 99.7
O=[N+]([O-])c1ccc(Sc2ncccn2)c([N+](=O)[O-])c1 | 68.6

## Input // returns reported growth for input "CCCCCc1cc[n+](CC(=O)c2ccc([N+](=O)[O-])cc2)cc1"
## Output 70

Data origin, for the record: PubChem BioAssay (NCI)
